Assay Protocol: Hygroscopicity (sorption/desorption)
Assay type: physicochemical
Condition Set: 95% r.h., 1 day, 25° C.
Assay Metric: Hygroscopicity: After 1 day at 95% r.h.

CS(=O)(=O)O.Cn1c(Nc2ccc(C(F)(F)F)cc2)nc2cc(Oc3ccnc(-c4ncc(C(F)(F)F)[nH]4)c3)ccc21 [Mesylate] :: 13.0

I. Cn1c(Nc2ccc(C(F)(F)F)cc2)nc2cc(Oc3ccnc(-c4ncc(C(F)(F)F)[nH]4)c3)ccc21 [API]
II. CCS(=O)(=O)O.Cn1c(Nc2ccc(C(F)(F)F)cc2)nc2cc(Oc3ccnc(-c4ncc(C(F)(F)F)[nH]4)c3)ccc21 [Esylate]
III. Cn1c(Nc2ccc(C(F)(F)F)cc2)nc2cc(Oc3ccnc(-c4ncc(C(F)(F)F)[nH]4)c3)ccc21.O=C(O)/C=C\C(=O)O [Maleate]
In this exercise, place the 3 compounds in ascending sequence of their recorded Hygroscopicity: After 1 day at 95% r.h.. Ranked list of labels, please, in the requested order. I, III, II
(I: 0.1, III: 1.1, II: 14.9)
